# SUBJECT_OF_TEST: HA-tagged PA of FluB (Influenza B virus, UniProt Q9QLI9)
# Construct: upstream of the initiation codon and antisense primers with a deleted stop codon; made in house; host or cells: human 293T cells, transiently transfected; unpurified cell lysate
# Sequence (Q9QLI9 whole entry): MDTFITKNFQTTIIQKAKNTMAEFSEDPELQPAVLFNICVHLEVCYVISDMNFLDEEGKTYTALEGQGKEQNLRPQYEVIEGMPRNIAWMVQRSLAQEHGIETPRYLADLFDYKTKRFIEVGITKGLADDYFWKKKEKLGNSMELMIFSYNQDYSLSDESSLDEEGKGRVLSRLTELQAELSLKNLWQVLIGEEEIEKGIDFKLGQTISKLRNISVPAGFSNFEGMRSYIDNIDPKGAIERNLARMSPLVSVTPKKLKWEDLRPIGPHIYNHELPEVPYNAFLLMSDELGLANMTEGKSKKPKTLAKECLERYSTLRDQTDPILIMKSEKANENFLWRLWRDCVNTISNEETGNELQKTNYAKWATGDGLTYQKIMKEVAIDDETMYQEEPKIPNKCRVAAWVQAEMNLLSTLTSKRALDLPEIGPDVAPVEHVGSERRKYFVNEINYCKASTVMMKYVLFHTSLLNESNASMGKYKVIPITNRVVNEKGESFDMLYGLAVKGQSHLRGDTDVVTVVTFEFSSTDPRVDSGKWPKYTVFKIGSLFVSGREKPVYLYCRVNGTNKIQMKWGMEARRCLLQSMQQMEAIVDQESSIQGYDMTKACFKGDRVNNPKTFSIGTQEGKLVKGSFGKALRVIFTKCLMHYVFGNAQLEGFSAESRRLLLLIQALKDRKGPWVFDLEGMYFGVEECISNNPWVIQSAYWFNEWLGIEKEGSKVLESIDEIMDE
# ASSAY_PROTOCOL: biochemical
# Format: binding
pIC50: −log10 of the molar value. Where no end group is shown, it is not given here.
RECORDED_METRIC: pIC50

substance="MDVNPTFLFLKVPAQ-NH2 [PB11-15 AL7F]" result_modifier=< assay_value=5.52
substance="MDVNPFLLFLKVPAQ-NH2 [PB11-15 AT6F]" result_modifier== assay_value=6.12
substance="MDVNPHLLFLKVPAQ-NH2 [PB11-15 AT6H]" result_modifier=< assay_value=5.52
substance="MDVNPYLLFLKVPAQ-NH2 [PB11-15 AT6Y]" result_modifier== assay_value=6.97
substance="MDVNPCLLFLKVPAQ-NH2 [PB11-15 AT6C]" result_modifier=< assay_value=5.52
substance="MDVNPYFLFLKVPAQ-NH2 [PB11-15 AT6Y,L7F]" result_modifier== assay_value=6.46
substance="MDVNPWLLFLKVPAQ-NH2 [PB11-15 AT6W]" result_modifier== assay_value=6.20
substance="MNINPTLLFLKVPIQ-NH2 [PB11-15 AD2N,V3I,L14I]" result_modifier=< assay_value=5.52
substance="MDVNPTLLFIDVPAQ-NH2 [PB11-15 AL10I,K11D]" result_modifier=< assay_value=5.52
